Target: Gal(a1-3)Gal(b1-4)GlcNAc(b1-2)Man
Assay: glycan array binding signal (z-score within array); higher = stronger binding
Conditions: glycan notation: IUPAC condensed, linker removed
The sample as a whole holds a higher share of the strongest signals than the screen did.
Property measured: glycan array binding signal (z-score)

Query string: Tell me measured glycan array binding signal (z-score) for OGAN (protein) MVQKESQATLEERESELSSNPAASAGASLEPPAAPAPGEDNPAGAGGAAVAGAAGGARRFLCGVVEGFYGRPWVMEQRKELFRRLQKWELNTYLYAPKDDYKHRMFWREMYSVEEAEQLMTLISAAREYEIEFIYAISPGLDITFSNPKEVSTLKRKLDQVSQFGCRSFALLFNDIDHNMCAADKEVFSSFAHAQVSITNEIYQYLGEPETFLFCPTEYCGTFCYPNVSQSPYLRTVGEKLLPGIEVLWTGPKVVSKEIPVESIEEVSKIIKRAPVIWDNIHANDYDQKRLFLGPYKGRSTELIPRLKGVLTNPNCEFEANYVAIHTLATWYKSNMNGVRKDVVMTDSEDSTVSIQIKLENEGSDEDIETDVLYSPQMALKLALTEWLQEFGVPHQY please.
Result string: -0.037
